test: Skin biopsy tissue concentration, four 0.7 mm horizontal sections, acetonitrile extraction (Example 1); format: in vivo; conditions: human, section 4, topical, 8 % sirolimus in the formulation, subject A, section 4, 7 hours after application, 8% sirolimus in capric acid:benzyl alcohol 50:50, read-out: Sirolimus concentration, skin section 4
Experimental readout: concentration at 7 h (ng/g)

CO[C@H]1C[C@@H]2CC[C@@H](C)[C@@](O)(O2)C(=O)C(=O)N2CCCC[C@H]2C(=O)O[C@H]([C@H](C)C[C@@H]2CC[C@@H](O)[C@H](OC)C2)CC(=O)[C@H](C)/C=C(\C)[C@@H](O)[C@@H](OC)C(=O)[C@H](C)C[C@H](C)/C=C/C=C/C=C/1C    239000

---

test: Skin biopsy tissue concentration, upper and lower half, HPLC (Example 2); assay type: in vivo, human; settings: human, skin biopsy, lower half (roughly dermis), topical, 2.2 % sirolimus in the formulation; Subject A; Lower (2), roughly dermis; 7 hours after application; 2.2% sirolimus in capric acid:isopropyl myristate:benzyl alcohol 50:40:10; read-out: Sirolimus Concentration, lower skin segment
Experimental readout: concentration at 7 h (ng/g)

CO[C@H]1C[C@@H]2CC[C@@H](C)[C@@](O)(O2)C(=O)C(=O)N2CCCC[C@H]2C(=O)O[C@H]([C@H](C)C[C@@H]2CC[C@@H](O)[C@H](OC)C2)CC(=O)[C@H](C)/C=C(\C)[C@@H](O)[C@@H](OC)C(=O)[C@H](C)C[C@H](C)/C=C/C=C/C=C/1C    333000

---

experiment: Skin biopsy tissue concentration, four 0.7 mm horizontal sections, acetonitrile extraction (Example 1); type: in vivo; conditions: human, section 2 (0.7-1.4 mm), topical, 8 % sirolimus in the formulation, subject C, section 2 (0.7-1.4 mm), 7 hours after application, 8% sirolimus in capric acid:benzyl alcohol 50:50, read-out: Sirolimus concentration, skin section 2
Experimental readout: concentration at 7 h (ng/g)

CO[C@H]1C[C@@H]2CC[C@@H](C)[C@@](O)(O2)C(=O)C(=O)N2CCCC[C@H]2C(=O)O[C@H]([C@H](C)C[C@@H]2CC[C@@H](O)[C@H](OC)C2)CC(=O)[C@H](C)/C=C(\C)[C@@H](O)[C@@H](OC)C(=O)[C@H](C)C[C@H](C)/C=C/C=C/C=C/1C    144000

---

assay: Skin biopsy tissue concentration, four 0.7 mm horizontal sections, acetonitrile extraction (Example 1); format: in vivo; settings: human, section 3, topical, 8 % sirolimus in the formulation, subject D, section 3, 7 hours after application, 8% sirolimus in capric acid:benzyl alcohol 50:50, read-out: Sirolimus concentration, skin section 3
Experimental readout: concentration at 7 h (ng/g)

CO[C@H]1C[C@@H]2CC[C@@H](C)[C@@](O)(O2)C(=O)C(=O)N2CCCC[C@H]2C(=O)O[C@H]([C@H](C)C[C@@H]2CC[C@@H](O)[C@H](OC)C2)CC(=O)[C@H](C)/C=C(\C)[C@@H](O)[C@@H](OC)C(=O)[C@H](C)C[C@H](C)/C=C/C=C/C=C/1C [sirolimus]    256000

---

test: Skin biopsy tissue concentration, four 0.7 mm horizontal sections, acetonitrile extraction (Example 1); type: in vivo; settings: human, section 1 (surface, 0-0.7 mm), topical, 8 % sirolimus in the formulation, subject A, section 1 (surface, 0-0.7 mm), 7 hours after application, 8% sirolimus in capric acid:benzyl alcohol 50:50, read-out: Sirolimus concentration, skin section 1
Experimental readout: concentration at 7 h (ng/g)

CO[C@H]1C[C@@H]2CC[C@@H](C)[C@@](O)(O2)C(=O)C(=O)N2CCCC[C@H]2C(=O)O[C@H]([C@H](C)C[C@@H]2CC[C@@H](O)[C@H](OC)C2)CC(=O)[C@H](C)/C=C(\C)[C@@H](O)[C@@H](OC)C(=O)[C@H](C)C[C@H](C)/C=C/C=C/C=C/1C    59000

// data source = patent US20050239724A1
